Would you mind telling me the reported melting point of each entry?

Brc1sc2ccccc2c1Br    57 to 59 °C
Cc1cc(C(=O)Nc2ccccc2)c(C)o1    92 to 93 °C

Give melting point for each of the items listed below.
1. O=C(NNc1ccc(C=CC(c2cc(Cl)c(Cl)c(Cl)c2)C(F)(F)F)cc1)C1CC1 (stereo not given)
2. BrCC1(c2ccc3c(c2)Cc2ccccc2-3)OCCO1
3. O=C1N(c2ccccc2Br)Cc2cnc(Nc3ccccc3)nc2N1c1cccc2ccccc12

1: 138 to 140 °C; 2: 90 °C; 3: 120 to 125 °C

====

Reported property: melting point

CCOC(=O)c1[nH]c2c(c1C)CC1CN(CC)CCC1(c1cccc(O)c1)C2 (configuration not stated)    195 to 197 °C
CCC(C)n1ccnc1S (configuration not stated)    108 to 121 °C
CCCc1c(OCCCOc2cccc3c2CCCC3)ccc2c1OC(CCC=O)(CCC=O)CC2=O    107 to 108 °C
Cc1sc(-c2ccccc2)nc1-c1ccc(Cl)cc1    90 to 91 °C
Cc1ccc(-c2nnc(S)nc2-c2ccc(C)cc2)cc1    220 to 223 °C

Give melting point for each of the items listed below.
1. CC(C)c1cc(C(=O)Nc2ccc(C(=O)O)cc2)oc1C(C)C
2. C#CCNC(=S)Cc1ccccn1
3. COC(=O)NC1CCc2sc(C3=NNC(=O)CC3)cc2C1 (configuration not stated)
4. c1cncc(NCCCOc2cccc(CN3CCCCC3)c2)c1
5. O=C(c1ccccc1)c1cnn2c(-c3cccc(C(F)(F)F)c3)ccnc12

1: 120 to 121 °C; 2: 62 to 63 °C; 3: 205 to 206 °C; 4: 120 to 122 °C; 5: 148 to 150 °C

Give melting point for each of the items listed below.
1. O=C1COCC(=O)NCCOCCN1
2. N#CC1(c2ccc(F)cc2)C2CC3CC(C2)CC1C3 (configuration not stated)
3. O=C1c2ccccc2C(=O)N1OCCCC#Cc1ccc(F)cc1
4. O=C1CC2CCC(=O)N2c2cc(O)cc(O)c21 (configuration not stated)
5. N#Cc1cc(-c2ccc(Cl)cc2Cl)c[nH]c1=O
6. CC(C)(O)c1ccc(-c2cnc3[nH]c(=O)n(CCC4CCOCC4)c3n2)cc1

180 to 181 °C
81 to 82 °C
85 to 88 °C
254 to 256 °C
> 260 °C
263 to 266 °C

====

Reported property: melting point

CCCCCCCCCCCCCCCCOC(=O)c1ccc(-c2nnn[nH]2)nc1    139 to 140 °C
BrCCc1ccc2c(c1)CCC2    57.8 to 58.1 °C

Give melting point for each of the items listed below.
1. CCCCNS(=O)(=O)CC(O)(CCCC)C(N)C(O)CC1CCCCC1 (centres undefined)
2. COc1cccc(C(O)c2cc(Cl)ccc2N(CC(N)=O)S(=O)(=O)c2ccc(OC)c(OC)c2)c1 (centres undefined)
3. CN(C)c1ccc(C2(CN)CCCC2)cc1
4. COc1cc2ccc3c4cc(OC)c(OC)cc4nc(C)c3c2cc1OC
5. COC(=O)CCc1cc2cc(Cl)ccc2n1S(=O)(=O)c1ccccc1
6. CCN(CC)CC(=C1NCCCS1)[N+](=O)[O-]

1. 164 to 165 °C
2. 100 °C
3. 87 to 89 °C
4. 255 to 257 °C
5. 93 to 96 °C
6. 68 to 69 °C

====

Would you mind telling me the reported melting point of each entry?

Some molecules with recorded melting point:
CCCCCCSc1c(O)cc(C)oc1=O    69 to 70 °C
CC(C(O)=S)c1sc(S(N)(=O)=O)cc1[N+](=O)[O-] (stereo not drawn)    154 to 155 °C
COc1ccc(CCCOc2c(C)cc(-c3noc(C)n3)cc2C)cn1    71 to 73 °C
COc1cccc(CN2CCCc3cc(O)c(OC)cc3C2)c1    114 to 115 °C
CN1CCC(OC2c3cccc(-c4cccc(N)c4)c3CCn3cc(-c4ccccc4)nc32)CC1 (stereo not drawn)    120 °C
Cc1cc(SCCC#Cc2ccc(C(F)(F)F)cc2)ccc1OCC(=O)O    129 to 130 °C
COC(=O)C1CC(C#N)(c2ccccc2)CCC1=O (stereo not drawn)    75 to 80 °C
Cc1nc[nH]c1CSCCN=C(NC#N)NCCc1c[nH]cn1    170 to 171 °C
CCN[C@@H]1CN(C(=O)c2nn(C)c3ccccc23)C[C@@H]1C (relative stereo)    62 to 64 °C
COc1nscc1C(=O)O    182 to 185 °C

Give melting point for each of the items listed below.
1. CCOC(=O)c1sc(N)nc1C(C)(C)C
2. O=c1oc2cc(Br)ccc2c(O)c1[N+](=O)[O-]
3. NC(=O)c1cc(O)cc2nc(-c3ccc(O)cc3)oc12

1: 99 to 100 °C; 2: 155 to 157 °C; 3: 325 °C

Give melting point for each of the items listed below.
1. Cc1oc2c(NC(=O)c3c(Cl)ccc(O)c3Cl)cccc2c1C
2. O=C(OCN1C(=O)CN(CCN2CC(=O)N(COC(=O)c3cccs3)C(=O)C2)CC1=O)c1cccs1

192 to 194 °C
158 to 160 °C

Give melting point for each of the items listed below.
1. Nc1ncc2c(n1)CCC(=O)C2
2. CCOC(=O)c1c(CC(=O)O)n(-c2ccc(OC(C)C)cc2)c2ccc(Oc3ccc(CCl)cn3)cc12
3. CCN1CCCCC1CCc1ccccc1NC(=O)C=Cc1ccccc1 (stereo not drawn)

1: 214 to 217 °C; 2: 153 to 155 °C; 3: 120 to 122 °C

====

Would you mind telling me the reported melting point of each entry?

Some compounds with recorded melting point:
CCN1C(=O)C(C)(C)c2ccc(C(=O)Nc3ccncc3)cc21    209 to 211 °C
CC(C)(C)OC(=O)Nc1cc(CC#N)c(C#Cc2ccccc2)cc1N    143 °C

Give melting point for each of the items listed below.
1. COc1ccc(C=CC(=O)c2ccc(O)cc2)c(OC)c1
2. CCCCc1nc(C)c(CC(=S)N2CCC2)c(=O)n1Cc1ccc(-c2ccccc2-c2nnn[nH]2)cc1
3. CCCc1nc2c(N)nc3cc(OCCCn4cccc4)ccc3c2s1
4. CC(C)(C)OC(=O)N1CCCC(C2=C(C#N)C(c3cccc4nonc34)c3c[nH]nc3N2)C1 (stereo not given)
5. CCCCCCc1ccc(-n2c(-c3ccc(C)cc3)cc(OC)c2-c2ccc(C)cc2)cc1

165 to 166 °C
92.4 to 93.8 °C
152 to 154 °C
229 °C
128 to 130 °C

Give melting point for each of the items listed below.
1. Nc1nc2ccccc2n1-c1cccc(-n2c(N)nc3ccccc32)c1
2. O=C(NCc1cccnc1)c1cc2ccnc(Cl)c2[nH]1

1. 270 °C
2. 189 to 191 °C

====

Reported property: melting point

Give melting point for each of the items listed below.
1. O=Cc1c(O)cccc1OCc1cccc(C(=O)O)c1
2. CCOC(=O)Cc1c(C)nn(-c2ccccn2)c1-c1ccccc1

1. 209 to 211 °C
2. 89 to 90 °C

Give melting point for each of the items listed below.
1. CC(C)(C)N1C(=O)c2ccc(C(=O)Cl)cc2S1(=O)=O
2. CC(=O)C(=CNN1C=CC=NC1c1ccncc1)C(C)=O (configuration not stated)
3. Cc1cccc(O[C@@H]2CCNC[C@H]2O)c1C (relative stereo)
4. COCCOc1cc(NC(=O)OC(C)(C)C)c([N+](=O)[O-])cc1I
5. CCNC(=O)c1ccc2ccc(OC)cc2c1OC(C)C
6. CCCOc1ccccc1-c1[nH]c(=O)c(C(N)=O)cc1C
7. Cc1c(F)c(F)c(F)c(F)c1C(=O)O

["185 to 186 °C", "182 to 183 °C", "127 to 129 °C", "109 to 111 °C", "78 to 79 °C", "238 to 240 °C", "80 to 82 °C"]

Give melting point for each of the items listed below.
1. c1ccc2c(c1)nc(N1CCOCC1)c1c(-c3noc(C4CC4)n3)ncn12
2. Cc1ccc([C@H]2CCCN2[S@@](=O)C(C)(C)C)cc1
3. CCn1c(=O)c2[nH]c(/C=C/c3ccccc3F)nc2n(CC)c1=O
4. Cc1ccc(S(=O)(=O)Nc2nc(-c3ccc([N+](=O)[O-])cc3)cs2)cc1
5. O=C(O)[C@@H]1CSCN1C(=O)OCc1ccccc1
6. COc1ccc(CN2C(=O)C3(COc4cc5c(cc43)OCCO5)c3ccccc32)cc1OC (configuration not stated)
7. CCCCCCCCCCCCCCCCCCNC(=O)OCC(COC)CN(C(C)=O)S(=O)(=O)CCCI (configuration not stated)

169 to 173 °C
62 to 64 °C
> 270 °C
> 250 °C
58 to 63 °C
209 to 211 °C
71 to 72 °C

Give melting point for each of the items listed below.
1. CCCNC(=O)C1Cc2c([nH]c3ccccc23)C(c2ccc3c(c2)OCO3)N1C(C)=O (configuration not stated)
2. O=C1N(c2cc(Cl)nc(Cl)c2)C(=O)[C@]2(Cc3ccc(OC(F)(F)F)cc3)C[C@@H](c3cc[nH]c3C(=O)C(F)(F)F)CN12
3. O=C(NCCn1ccccc1=O)c1cccnc1
4. CCCCCCOc1cc(-c2ccc3cc4c(cc3c2)C(C)(C)CCC4(C)C)ccc1C(=O)O
5. O=c1c(-c2ccccc2)c[nH]n1-c1ncccn1

163 to 165 °C
167 °C
158 to 159 °C
105 to 106 °C
159 to 160 °C

Data origin: a melting point compilation (Tetko et al.; mined from patent text by program, amines drawn as free bases though some values may be those of a salt)
